system: HeLa; test: Cytotoxicity against human HeLa cells; assay type: functional, cell-based
VALUE TYPE: IC50

Examples with answers:
COMPOUND	TARGET DESC	IC50
CO[C@]12C=C[C@](C)(O1)[C@@H](OC(=O)/C=C/c1cn(C)cn1)C[C@H]1C(C)=CC[C@H](C(C)C)[C@H]1/C=C\2CO[C@@H]1OC[C@@H](O)[C@@H](O)[C@@H]1OC(C)=O [ELEUTHEROBIN]	HeLa	0.017 µg/mL
CCOC(=O)/C1=C/[C@@H]2[C@@H](C(C)C)CC=C(C)[C@@H]2C[C@H](OC(=O)/C=C/c2cn(C)cn2)[C@]2(C)C=C[C@@]1(O)O2 [SARCODICTYIN B]	HeLa	0.09 µg/mL
CO[C@]12C=C[C@](C)(O1)[C@@H](OC(=O)/C=C/c1cn(C)cn1)C[C@H]1C(C)=CC[C@H](C(C)C)[C@H]1/C=C\2CO [ELEUTHEROBIN AGLYCON]	HeLa	0.09 µg/mL
COC(=O)/C1=C/[C@@H]2[C@@H](C(C)C)CC=C(C)[C@@H]2C[C@H](OC(=O)/C=C\c2cn(C)cn2)[C@]2(C)C=C[C@@]1(O)O2	HeLa	0.09 µg/mL

# evaluate next
Can you look up IC50 on HeLa for CO[C@]12C=C[C@](C)(O1)[C@@H](OC(=O)/C=C\c1cn(C)cn1)C[C@H]1C(C)=CC[C@H](C(C)C)[C@H]1/C=C\2CO[C@@H]1OC[C@@H](O)[C@@H](O)[C@@H]1OC(C)=O ? 0.017 µg/mL
